For each of the compounds below, state its relative viability.
Test system: 201T
Test: relative viability (nuclei count vs DMSO), 5 days (fraction); higher = more cells survive
Details: first compound 0.005 µM
One number for each entry.

Example compounds with recorded relative viability:
| compound | system.under.test | relative viability |
| --- | --- | --- |
| Nc1ccn([C@@H]2O[C@H](CO)[C@@H](O)[C@@H]2O)c(=O)n1 [Cytarabine] + C[C@]1(O)C[C@@H](c2nc(-c3ccc4ccc(-c5ccccc5)nc4c3)c3c(N)nccn32)C1 [Linsitinib] (partner 1 µM) | 201T | 1.1 |
| Nc1ccn([C@@H]2O[C@H](CO)[C@@H](O)[C@@H]2O)c(=O)n1 [Cytarabine] + Cc1nc(Nc2ncc(C(=O)Nc3c(C)cccc3Cl)s2)cc(N2CCN(CCO)CC2)n1 [Dasatinib] (partner 0.075 µM) | 201T | 0.659 |
| COc1cc2nccc(Oc3ccc(NC(=O)Nc4cc(C)on4)c(Cl)c3)c2cc1OC [Tivozanib] + CS(=O)(=O)CCNCc1ccc(-c2ccc3ncnc(Nc4ccc(OCc5cccc(F)c5)c(Cl)c4)c3c2)o1 [Lapatinib] (partner 2 µM) | 201T | 1.04 |

Quick note, relative viability for COc1cc2nccc(Oc3ccc(NC(=O)Nc4cc(C)on4)c(Cl)c3)c2cc1OC [Tivozanib] + CC(=O)Nc1cccc(-n2c(=O)n(C3CC3)c(=O)c3c(Nc4ccc(I)cc4F)n(C)c(=O)c(C)c32)c1 [Trametinib] (partner 0.02 µM) landed at 0.691

Reference source for all entries: the supplement of paper PMC10307832
